system.name: Fuc(a1-3)[Gal(b1-4)]GlcNAc(b1-4)Gal(b1-4)[Fuc(a1-3)]GlcNAc(b1-4)Gal(b1-4)[Fuc(a1-3)]GlcNAc
assay.comment: glycan array binding signal (z-score within array); higher = stronger binding
condition.notes: glycan notation: IUPAC condensed, linker removed
The sample as a whole holds a higher share of the strongest signals than the screen did.
measure: glycan array binding signal (z-score)

[[record]]
binder = "PEB3 (Campylobacter jejuni), Q0PBL7 (protein) MKKIITLFGACALAFSMANADVNLYGPGGPHTALKDIANKYSEKTGVKVNVNFGPQATWFEKAKKDADILFGASDQSALAIASDFGKDFNVSKIKPLYFREAIILTQKGNPLKIKGLKDLANKKVRIVVPEGAGKSNTSGTGVWEDMIGRTQDIKTIQNFRNNIVAFVPNSGSARKLFAQDQADAWITWIDWSKSNPDIGTAVAIEKDLVVYRTFNVIAKEGASKETQDFIAYLSSKEAKEIFKKYGWRE"
measure = "glycan array binding signal (z-score)"
quantitative_result = 0.144

[[record]]
binder = "BC2L-D C-terminal domain (Burkholderia cenocepacia), Q39MQ9_BURS3 (protein) LVIVDAVTLLSAYPEASRDPAAPTVIDGRHLYVVSPGDAAQLGHNDSRLFTGLSPGDQLHLRETALALRAEVSVLFIRFALKDAGIVAPIELEVRDAATAVPDADDLLHPSCRPLKDHYWRSDVLAAGATTCTADFAVCDRDGTVSGYFRWETSIEIAGSQPDTKQPGFKPSSDRNGNFSLPPNTAFKAIFYANAADRQDLKLFIDDAPEPAATFVGNSEDGVRLFTLNSKGGKIRIEASANGRQSATDARLAPLSAGDTVWLGWLGAEDGADADYNDGIVILQWPIT"
measure = "glycan array binding signal (z-score)"
quantitative_result = 0.024

[[record]]
binder = "F17bG (Escherichia coli), Q47200 (protein) MTNFYKVFLAVFILVCCNISHAVVSFIGSTENDVGPSQGSYSSTHAMDNLPFVYNTGYNIGYQNANVWRIGGGFCVGLDGKVDLPVVGSLDGQSIYGLTEEVGLLIWMGDTNYSRGTAMSGNSWENVFSGWCVGNYLSTQGLSVHVRPVILKRNSSAQYSVQKTSIGSIRMRPYNGSSAGSVQTTVNFSLNPFTLNDTVTSCRLLTPSAVNVSLAAISAGQLPSSGDEVVAGTTSLKLQCDAGVTVWATLTDATTPSNRSDILTLTGASTATGVGLRIYKNTDSTPLKFGPDSPVKGNENQWQLSTGTETSPSVRLYVKYVNTGEGINPGTVNGISTFTFSYQ"
measure = "glycan array binding signal (z-score)"
quantitative_result = -0.507

[[record]]
binder = "PEB3 Cj0289c (Campylobacter jejuni), Q9PIK7 (protein) MDVNLYGPGGPHTALKDIANKYSEKTGVKVNVNFGPQATWFEKAKKDADILFGASDQSALAIASDFGKDFNVSKIKPLYFREAIILTQKGNPLKIKGLKDLANKKVRIVVPEGAGKSNTSGTGVWEDMIGRTQDIKTIQNFRNNIVAFVPNSGSARKLFAQDQADAWITWIDWSKSNPDIGTAVAIEKDLVVYRTFNVIAKEGASKETQDFIAYLSSKEAKEIFKKYGWRE"
measure = "glycan array binding signal (z-score)"
quantitative_result = -0.441

[[record]]
binder = "SefD (Salmonella enterica), Q9L6K6 (protein) GAYIIRGQNNSAHKLRIRIGGEDWQPDNSGIGMVSHSDFTNEFNIYYFGNGDIPVDTYLISIYATEIEL"
measure = "glycan array binding signal (z-score)"
quantitative_result = -0.46

